Tested on: Oryza sativa
Method summary: Relieving activity against bensulfuron-methyl induced injury to Oryza sativa (rice) assessed as growth rate at 1 uM (Rbv = 46 to 53%)
Type: functional
Recorded endpoint: Activity

CCOC(=O)c1ccc(NC(=O)N[C@H](C)c2ccccc2)cc1	78%
CCOC(=O)c1cccc(NC(=O)N[C@H](C)c2ccccc2)c1	74%
C[C@H](NC(=O)Nc1cccc(C(F)(F)F)c1)c1ccccc1	75%
CCOC(=O)c1ccccc1NC(=O)N[C@@H](C)c1ccccc1	60%
C[C@H](NC(=O)Nc1ccc(Cl)cc1)c1ccccc1	83%
CC(C)c1cccc(NC(=O)N[C@H](C)c2ccccc2)c1	48%
C[C@@H](NC(=O)Nc1cc(Cl)cc(Cl)c1)c1ccccc1	63%
C[C@H](NC(=O)Nc1ccccc1C(C)(C)C)c1ccccc1	57%
CCCCCCCc1ccc(NC(=O)N[C@H](C)c2ccccc2)cc1	52%
C[C@H](NC(=O)Nc1c(Cl)cccc1Cl)c1ccccc1	69%
C[C@@H](NC(=O)Nc1ccc(I)cc1)c1ccccc1	78%
C[C@H](NC(=O)Nc1cc(C(F)(F)F)cc(C(F)(F)F)c1)c1ccccc1	65%
C[C@H](NC(=O)Nc1ccc(Cl)cc1Cl)c1ccccc1	80%
CC(=O)c1cccc(NC(=O)N[C@@H](C)c2ccccc2)c1	83%
C[C@@H](NC(=O)Nc1ccc(Cl)cc1Cl)c1ccccc1	65%
Cc1ccc(NC(=O)N[C@@H](C)c2ccccc2)cc1	86%
CCCCCCc1ccc(NC(=O)N[C@H](C)c2ccccc2)cc1	54%
Cc1cccc(NC(=O)N[C@H](C)c2ccccc2)c1	60%
C[C@@H](NC(=O)Nc1cc(Cl)ccc1Cl)c1ccccc1	68%
CC(=O)c1cccc(NC(=O)N[C@H](C)c2ccccc2)c1	57%
C[C@@H](NC(=O)Nc1cc(C(F)(F)F)ccc1F)c1ccccc1	55%
Cc1ccc(NC(=O)NC(C)(C)c2ccccc2)cc1	88%
C[C@H](NC(=O)Nc1cc(Cl)ccc1Cl)c1ccccc1	85%
C[C@H](NC(=O)Nc1ccc(Cl)c(Cl)c1)c1ccccc1	78%
CC(C)c1ccccc1NC(=O)N[C@@H](C)c1ccccc1	48%
CC(=O)c1ccc(NC(=O)N[C@H](C)c2ccccc2)cc1	59%
CCc1ccc(NC(=O)N[C@H](C)c2ccccc2)cc1	43%
CCCCCc1ccc(NC(=O)N[C@H](C)c2ccccc2)cc1	65%
C[C@@H](NC(=O)Nc1ccccc1C(C)(C)C)c1ccccc1	61%
C[C@H](NC(=O)Nc1ccc(C(C)(C)C)cc1)c1ccccc1	65%
CCc1cccc(CC)c1NC(=O)N[C@@H](C)c1ccccc1	50%
C[C@H](NC(=O)Nc1ccccc1I)c1ccccc1	85%
C[C@@H](NC(=O)Nc1ccc(F)cc1)c1ccccc1	55%
C[C@@H](NC(=O)Nc1cc(C(F)(F)F)cc(C(F)(F)F)c1)c1ccccc1	65%
COc1cccc(NC(=O)N[C@@H](C)c2ccccc2)c1	86%
C[C@H](NC(=O)Nc1ccc(F)cc1F)c1ccccc1	79%
COc1cccc(NC(=O)N[C@H](C)c2ccccc2)c1	63%
C[C@H](NC(=O)Nc1cc(F)cc(F)c1)c1ccccc1	79%
CCc1cccc(NC(=O)N[C@H](C)c2ccccc2)c1	59%
C[C@H](NC(=O)Nc1cc(C(F)(F)F)ccc1F)c1ccccc1	79%
C[C@H](NC(=O)Nc1ccc(F)cc1)c1ccccc1	72%
COc1ccccc1NC(=O)N[C@H](C)c1ccccc1	55%
CCCCc1ccc(NC(=O)N[C@@H](C)c2ccccc2)cc1	68%
C[C@@H](NC(=O)Nc1cc(F)ccc1F)c1ccccc1	67%
CC(C)c1ccc(NC(=O)N[C@H](C)c2ccccc2)cc1	67%
C[C@@H](NC(=O)Nc1ccc(Br)cc1)c1ccccc1	77%
CCOC(=O)c1ccccc1NC(=O)N[C@H](C)c1ccccc1	63%
CCCc1ccc(NC(=O)N[C@H](C)c2ccccc2)cc1	33%

###

Quick list: Activity per entry.
System: Oryza sativa
Method summary: Relieving activity against bensulfuron-methyl induced injury to Oryza sativa (rice) assessed as growth rate at 1 uM (Rbv = 46 to 53%)
Type: functional
Recorded endpoint: Activity (%)

C[C@H](NC(=O)Nc1ccc(Br)cc1)c1ccccc1	79
C[C@H](NC(=O)Nc1cc(C(C)(C)C)ccc1C(C)(C)C)c1ccccc1	59
C[C@@H](NC(=O)Nc1ccc(C(F)(F)F)cc1)c1ccccc1	74
Cc1cc(F)ccc1NC(=O)N[C@H](C)c1ccccc1	57
Cc1cccc(NC(=O)N[C@@H](C)c2ccccc2)c1	79
C[C@@H](NC(=O)Nc1cccc(C(F)(F)F)c1)c1ccccc1	63
C[C@H](NC(=O)Nc1ccc(C(F)(F)F)cc1)c1ccccc1	85
CC(=O)c1ccccc1NC(=O)N[C@H](C)c1ccccc1	51
C[C@@H](NC(=O)Nc1cc(C(C)(C)C)ccc1C(C)(C)C)c1ccccc1	63
C[C@@H](NC(=O)Nc1ccc(F)cc1F)c1ccccc1	61
C[C@@H](NC(=O)Nc1ccc(F)c(F)c1)c1ccccc1	60
CCc1ccc(NC(=O)N[C@@H](C)c2ccccc2)cc1	80
C[C@H](NC(=O)Nc1ccc(F)c(F)c1)c1ccccc1	70
CCCCCCc1ccc(NC(=O)N[C@@H](C)c2ccccc2)cc1	54
C[C@@H](NC(=O)Nc1ccc(Cl)cc1)c1ccccc1	80
C[C@@H](NC(=O)Nc1cccc(I)c1)c1ccccc1	66
CCCCCCCc1ccc(NC(=O)N[C@@H](C)c2ccccc2)cc1	53
C[C@H](NC(=O)Nc1ccccc1C(F)(F)F)c1ccccc1	70
C[C@@H](NC(=O)Nc1cc(F)cc(F)c1)c1ccccc1	59
Cc1ccc(NC(=O)N[C@@H](C)c2ccccc2)c(F)c1	87
Cc1ccccc1NC(=O)N[C@@H](C)c1ccccc1	60
CC(C)c1ccccc1NC(=O)N[C@H](C)c1ccccc1	48
C[C@H](NC(=O)Nc1ccccc1F)c1ccccc1	81
CCc1cccc(NC(=O)N[C@@H](C)c2ccccc2)c1	72

###

Quick list: log K per entry.
Method summary: Hydrophobicity, log K of the compound
Type: physicochemical
Protocol conditions: octanol/water
Recorded endpoint: log K

C[C@@H](NC(=O)Nc1ccccc1Cl)c1ccccc1	0.486
CC(C)c1cccc(NC(=O)N[C@@H](C)c2ccccc2)c1	0.58
C[C@@H](NC(=O)Nc1ccc(Cl)cc1Cl)c1ccccc1	0.688
CC(=O)c1ccccc1NC(=O)N[C@H](C)c1ccccc1	0.432
C[C@@H](NC(=O)Nc1cc(Cl)cc(Cl)c1)c1ccccc1	0.703
CCc1ccccc1NC(=O)N[C@H](C)c1ccccc1	0.422
C[C@@H](NC(=O)Nc1ccccc1Br)c1ccccc1	0.504
Cc1cccc(NC(=O)N[C@H](C)c2ccccc2)c1	0.374
CCOC(=O)c1ccc(NC(=O)N[C@H](C)c2ccccc2)cc1	0.415
CCc1cccc(NC(=O)N[C@@H](C)c2ccccc2)c1	0.489
CC(=O)c1ccc(NC(=O)N[C@@H](C)c2ccccc2)cc1	0.227
CC(C)c1ccccc1NC(=O)N[C@@H](C)c1ccccc1	0.487
COc1ccccc1NC(=O)N[C@@H](C)c1ccccc1	0.343
C[C@H](NC(=O)Nc1c(Cl)cccc1Cl)c1ccccc1	0.326
C[C@@H](NC(=O)Nc1cc(C(F)(F)F)cc(C(F)(F)F)c1)c1ccccc1	0.831
C[C@H](NC(=O)Nc1cccc(C(F)(F)F)c1F)c1ccccc1	0.624
C[C@H](NC(=O)Nc1cc(Cl)ccc1Cl)c1ccccc1	0.704
C[C@@H](NC(=O)Nc1cc(Cl)ccc1Cl)c1ccccc1	0.704
C[C@@H](NC(=O)Nc1c(Cl)cccc1Cl)c1ccccc1	0.326
C[C@H](NC(=O)Nc1ccc(F)cc1)c1ccccc1	0.307
C[C@H](NC(=O)Nc1ccc(C(C)(C)C)cc1)c1ccccc1	0.673
C[C@@H](NC(=O)Nc1ccc(C(F)(F)F)cc1)c1ccccc1	0.537
C[C@H](NC(=O)Nc1cccc(F)c1)c1ccccc1	0.363
Cc1cccc(NC(=O)N[C@@H](C)c2ccccc2)c1	0.374
CCCCCCc1ccc(NC(=O)N[C@@H](C)c2ccccc2)cc1	1.081
C[C@H](NC(=O)Nc1ccccc1Cl)c1ccccc1	0.486
CCCc1ccc(NC(=O)N[C@H](C)c2ccccc2)cc1	0.602
CC(C)c1ccc(NC(=O)N[C@@H](C)c2ccccc2)cc1	0.577
CC(=O)c1cccc(NC(=O)N[C@@H](C)c2ccccc2)c1	0.245
C[C@H](NC(=O)Nc1cccc(F)c1F)c1ccccc1	0.435
C[C@@H](NC(=O)Nc1ccc(Br)cc1)c1ccccc1	0.488
CCCCCCCc1ccc(NC(=O)N[C@@H](C)c2ccccc2)cc1	1.266
C[C@H](NC(=O)Nc1cc(C(F)(F)F)ccc1F)c1ccccc1	0.64
CCCCCc1ccc(NC(=O)N[C@H](C)c2ccccc2)cc1	0.912
CCc1ccccc1NC(=O)N[C@@H](C)c1ccccc1	0.422
C[C@H](NC(=O)Nc1cc(C(F)(F)F)cc(C(F)(F)F)c1)c1ccccc1	0.831
